Test system: U87MG pLVX-IDH2 R140Q-neo cells
assay-text: U87MG pLVX-IDH2 R140Q-neo cell based assay, 2-HG in media by LC-MS at 48 hours
condition: Homo sapiens, U-87 MG
Please go through the items and note down their IC50.

CC(C)Nc1nc(Nc2ccc(F)nc2)nc(-c2nccc(C(F)(F)F)n2)n1 yielded IC50 of < 100 nM

Lookup result for CC(C)(C)Nc1nc(Nc2ccncc2)nc(-c2ccccc2)n1 ; measured IC50: 100 to 1000 nM

Lab note: measured IC50 of CC1(Nc2nc(Nc3ccncc3)nc(-c3ccccc3)n2)CC1 was 100 to 1000 nM

Sure, the documented IC50 for c1ccc(Nc2nc(NC3CCOC3)nc(-c3ccccc3)n2)cc1 (stereo not drawn) is < 100 nM

Field IC50 (entry CC(C)(C)Nc1nc(Nc2ccnc(C(C)(F)F)c2)nc(-c2cccc(C(C)(F)F)n2)n1 ) reads < 100 nM

Recorded result, Fc1cncc(Nc2nc(NC3C4COCC43)nc(-c3cccc(Cl)n3)n2)c1 (stereo not drawn) , IC50: < 100 nM

// sample CCCNc1nc(Nc2ccncc2)nc(-c2ccccc2)n1 , its IC50 was 100 to 1000 nM

Quick note, IC50 for CC(C)Nc1nc(Nc2ccnc(CC#N)c2)nc(-c2cccc(C(F)(F)F)n2)n1 landed at < 100 nM

Sure, the documented IC50 for CC(C)Nc1nc(Nc2ccccc2)nc(-c2ccccc2NS(C)(=O)=O)n1 is 1000 to 10000 nM
